Reference source for all entries: patent US20030186334A1

MEASURED ON: human α1β1 integrin (human), P56199
Sequence (P56199 29-1179, chain 1 of 2): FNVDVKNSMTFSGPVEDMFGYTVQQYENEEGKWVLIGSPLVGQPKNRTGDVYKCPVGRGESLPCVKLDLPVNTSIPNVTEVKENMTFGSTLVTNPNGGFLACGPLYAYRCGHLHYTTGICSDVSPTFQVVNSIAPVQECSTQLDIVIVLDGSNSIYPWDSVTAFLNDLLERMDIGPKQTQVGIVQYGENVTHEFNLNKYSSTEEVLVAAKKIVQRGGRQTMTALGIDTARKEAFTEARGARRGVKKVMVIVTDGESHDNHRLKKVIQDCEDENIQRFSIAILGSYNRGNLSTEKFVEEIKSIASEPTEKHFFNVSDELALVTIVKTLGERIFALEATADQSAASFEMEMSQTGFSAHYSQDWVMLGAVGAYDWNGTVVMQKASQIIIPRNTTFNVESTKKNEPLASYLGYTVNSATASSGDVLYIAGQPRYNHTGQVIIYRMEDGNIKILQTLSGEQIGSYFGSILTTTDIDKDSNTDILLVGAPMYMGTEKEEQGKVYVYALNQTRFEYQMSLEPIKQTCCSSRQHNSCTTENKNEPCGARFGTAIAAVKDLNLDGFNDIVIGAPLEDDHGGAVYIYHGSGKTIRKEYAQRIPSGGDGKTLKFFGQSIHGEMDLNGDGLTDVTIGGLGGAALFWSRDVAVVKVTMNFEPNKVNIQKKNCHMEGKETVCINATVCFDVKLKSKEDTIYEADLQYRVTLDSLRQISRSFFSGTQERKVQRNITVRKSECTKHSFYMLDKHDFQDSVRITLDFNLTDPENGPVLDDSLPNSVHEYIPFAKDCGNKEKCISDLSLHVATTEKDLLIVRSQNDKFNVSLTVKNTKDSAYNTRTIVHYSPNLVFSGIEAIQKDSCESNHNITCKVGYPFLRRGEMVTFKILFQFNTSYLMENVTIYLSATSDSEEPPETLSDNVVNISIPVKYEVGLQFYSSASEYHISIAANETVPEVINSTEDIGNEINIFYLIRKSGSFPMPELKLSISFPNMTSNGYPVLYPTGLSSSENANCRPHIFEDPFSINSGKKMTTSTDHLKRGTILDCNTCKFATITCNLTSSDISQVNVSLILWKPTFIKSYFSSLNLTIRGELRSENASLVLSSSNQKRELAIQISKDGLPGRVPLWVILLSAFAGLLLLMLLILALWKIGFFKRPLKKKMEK
Sequence (P05556 21-798, chain 2 of 2, further chain): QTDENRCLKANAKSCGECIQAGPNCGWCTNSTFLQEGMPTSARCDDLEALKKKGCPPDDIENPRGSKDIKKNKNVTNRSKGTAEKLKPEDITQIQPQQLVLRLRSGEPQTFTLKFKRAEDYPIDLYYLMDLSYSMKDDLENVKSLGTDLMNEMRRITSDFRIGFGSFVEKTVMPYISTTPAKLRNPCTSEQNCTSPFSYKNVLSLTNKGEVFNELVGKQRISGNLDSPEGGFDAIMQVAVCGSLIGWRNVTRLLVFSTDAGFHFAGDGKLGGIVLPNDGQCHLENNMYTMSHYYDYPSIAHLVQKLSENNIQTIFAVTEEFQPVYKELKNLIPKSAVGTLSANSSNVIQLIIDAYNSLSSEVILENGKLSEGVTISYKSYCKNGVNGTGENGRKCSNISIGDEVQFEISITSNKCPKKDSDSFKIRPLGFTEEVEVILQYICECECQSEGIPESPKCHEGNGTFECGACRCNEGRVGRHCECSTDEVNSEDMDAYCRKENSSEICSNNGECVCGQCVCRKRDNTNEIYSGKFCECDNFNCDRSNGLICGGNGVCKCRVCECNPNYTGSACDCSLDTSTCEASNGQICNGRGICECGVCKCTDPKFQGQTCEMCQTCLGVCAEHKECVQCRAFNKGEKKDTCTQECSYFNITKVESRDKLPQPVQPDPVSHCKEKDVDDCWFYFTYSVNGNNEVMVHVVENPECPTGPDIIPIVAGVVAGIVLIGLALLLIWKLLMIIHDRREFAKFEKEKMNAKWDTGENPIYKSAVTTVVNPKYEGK
RUN DESCRIPTION: inhibition of adhesion of α1K562 cells to immobilised collagen IV
REPORTED METRIC: IC50 (mM)
A number alone suffices; assume mM.

For reference, reported IC50 for TSLTS (modifications not checked) [synthetic peptide TSLTS (SEQ ID NO: 6)] stands at 3.5
